test system: lacZ under control of the tetA promoter (PtetA) in E. coli KM3; assay type: cell-based; conditions: Table 4; tribenuron 20 ppm; 48 hrs at 30° C.
ASSAY ENDPOINT: relative β-galactosidase activity, inducer Tb
Please give only the number in your answer, with no unit.

# input molecule: L1-44: SU-responsive TetR(B) variant, library L1 hit, SEQ ID NO: 13 (protein, Sulfonylurea responsive repressor L1-44) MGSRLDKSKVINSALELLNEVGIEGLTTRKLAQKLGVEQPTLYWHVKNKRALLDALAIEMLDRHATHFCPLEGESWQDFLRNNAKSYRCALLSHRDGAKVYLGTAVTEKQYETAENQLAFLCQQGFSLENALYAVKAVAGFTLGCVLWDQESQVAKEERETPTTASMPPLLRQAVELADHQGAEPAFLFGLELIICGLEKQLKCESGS ; wanted: its relative β-galactosidase activity, inducer Tb
0.4
